FYI, the data here is from ChEMBL document CHEMBL4368888.

pIC50 values, listed per item
Test system: HeLa
Method: Antiproliferative activity against human HeLa cells after 48 hrs by MTT assay
Format: functional, cell-based
pIC50: −log10 of the molar value.
Experimental endpoint: pIC50

- Cc1cccc(C(=O)NCCc2c[nH]c3ccc(Br)cc23)c1O: 4.28
- COc1ccc2[nH]cc(CCNC(=O)c3ccc(Cl)cc3O)c2c1: 4.15
- O=C(NCCc1c[nH]c2ccc(F)cc12)c1cc(Br)ccc1O: 4.12
- O=C(NCCc1c[nH]c2ccc(Cl)cc12)c1ccc(Cl)cc1O: 4.19
- Cc1ccc2[nH]cc(CCNC(=O)c3ccc(Cl)cc3O)c2c1: 4.03
- O=C(NCCc1c[nH]c2ccc(Cl)cc12)c1ccccc1O: 4.09

* * *

System: MGC-803
Method: Antiproliferative activity against human MGC803 cells after 48 hrs by MTT assay
Format: functional, cell-based
Study conditions: MGC-803, 48 h
Response field label: string, one of 1.0 (IC50 strictly below 60 µM) or 0.0.

• Cc1ccc2[nH]cc(CCNC(=O)c3cc(Cl)ccc3O)c2c1 = 1.0
• Cc1cccc(C(=O)NCCc2c[nH]c3ccc(Br)cc23)c1O = 1.0
• O=C(NCCc1c[nH]c2ccc(Cl)cc12)c1cc(Cl)ccc1O = 1.0
• Cc1cccc(C(=O)NCCc2c[nH]c3ccccc23)c1O = 0.0
• O=C(NCCc1c[nH]c2ccc(F)cc12)c1cc(Cl)ccc1O = 1.0
• O=C(NCCc1c[nH]c2ccc(F)cc12)c1ccccc1O = 0.0
• Cc1ccc(C(=O)NCCc2c[nH]c3ccc(Br)cc23)c(O)c1 = 1.0
• O=C(NCCc1c[nH]c2ccc(F)cc12)c1cc(Br)ccc1O = 0.0
• O=C(NCCc1c[nH]c2ccc(Br)cc12)c1cc(Br)ccc1O = 0.0
• O=C(NCCc1c[nH]c2ccc(Br)cc12)c1cc(Cl)ccc1O = 0.0
• Cc1ccc2[nH]cc(CCNC(=O)c3cccc(C)c3O)c2c1 = 1.0
• Cc1ccc(C(=O)NCCc2c[nH]c3ccccc23)c(O)c1 = 0.0
• Cc1ccc2[nH]cc(CCNC(=O)c3ccc(Cl)cc3O)c2c1 = 1.0
• COc1ccc2[nH]cc(CCNC(=O)c3ccc(Cl)cc3O)c2c1 = 1.0
• COc1ccc2[nH]cc(CCNC(=O)c3cc(Br)ccc3O)c2c1 = 0.0
• O=C(NCCc1c[nH]c2ccc(Cl)cc12)c1ccccc1O = 1.0
• O=C(NCCc1c[nH]c2ccccc12)c1cc(Cl)ccc1O = 0.0
• Cc1cccc(C(=O)NCCc2c[nH]c3ccc(F)cc23)c1O = 1.0
• O=C(NCCc1c[nH]c2ccccc12)c1cc(Br)ccc1O = 0.0
• Cc1cccc(C(=O)NCCc2c[nH]c3ccc(Cl)cc23)c1O = 1.0
• O=C(NCCc1c[nH]c2ccc(Br)cc12)c1ccccc1O = 1.0

* * *

IC50 values, listed per item
System: HeLa
Method: Antiproliferative activity against human HeLa cells after 48 hrs by MTT assay
Format: functional, cell-based
Experimental endpoint: IC50

• O=C(NCCc1c[nH]c2ccc(Br)cc12)c1cc(Br)ccc1O = > 100 µM
• O=C(NCCc1c[nH]c2ccc(F)cc12)c1ccccc1O = > 100 µM
• Cc1ccc(C(=O)NCCc2c[nH]c3ccc(F)cc23)c(O)c1 = > 100 µM

* * *

System: MGC-803
Method: Antiproliferative activity against human MGC803 cells after 48 hrs by MTT assay
Assay type: functional, cell-based
Study conditions: MGC-803, 48 h
IC50 values, listed per item
Experimental endpoint: IC50 (µM)

• COc1ccc2[nH]cc(CCNC(=O)c3ccc(C)cc3O)c2c1 = 59
• Cc1ccc(C(=O)NCCc2c[nH]c3ccc(F)cc23)c(O)c1 = 60
• Cc1ccc2[nH]cc(CCNC(=O)c3cc(Br)ccc3O)c2c1 = 61
